Data origin: ChEMBL document CHEMBL3593199

Test system: RAW264.7
Test: Anti-inflammatory activity in mouse RAW264.7 cells assessed as inhibition of LPS-induced prostaglandin E2 production incubated for 48 hrs by ELISA method
Type: functional, cell-based
Settings: RAW264.7, 48 h
Note to self: use yes only for IC50 readings below 4 µM; a reading exactly at 4 µM still gets no.

Decide: IC50 of C=C1C(=O)O[C@@H]2C[C@H](C)[C@]3(O)[C@@H](C[C@H]12)[C@](C)(OC(C)=O)C[C@@H]3O strictly below 4 µM? no

Repeat for the following molecule: C=C1C(=O)O[C@@H]2CC(C)=C3CC[C@@](C)(OC(C)=O)[C@@H]3C[C@H]12 yes

Repeat for the following molecule: C=C1C(=O)O[C@@H]2C[C@](C)(O)C3=CC[C@@](C)(O)[C@@H]3C[C@H]12 no

Repeat for the following molecule: C=C(CO)[C@@H]1CCC(C)=C([C@H](C)CCC(=O)O)C1 no

Repeat for the following molecule: C=C1C(=O)O[C@@H]2C[C@H](C)[C@]34O[C@H]3C[C@@](C)(OC(C)=O)[C@@H]4C[C@H]12 yes

Repeat for the following molecule: C=C1C(=O)O[C@@H]2C[C@H](C)[C@]34O[C@](C)(C[C@@H]3OC(C)=O)[C@@H]4C[C@H]12 no

Repeat for the following molecule: C=C1C(=O)O[C@@H]2C[C@H](C)C(CCC(C)=O)=CC[C@H]12 [TOMENTOSIN] no

Repeat for the following molecule: C=C1C(=O)O[C@@H]2CC(C)=C3CC[C@@](C)(O)[C@@H]3C[C@H]12 yes

Repeat for the following molecule: C=C1C(=O)O[C@@H]2C[C@H](C)[C@]34O[C@H]3C[C@@](C)(O)[C@@H]4C[C@H]12 yes

Repeat for the following molecule: C=C1C(=O)O[C@@H]2C[C@H](C)C3=CC[C@@](C)(O)[C@@H]3C[C@H]12 no
